# System: BCL6 (Homo sapiens)
# Construct: endogenous in cells; host or cells: T47D breast cancer epithelial cells
# Method: Immunofluorescence protocol for high content imaging of BCL6 (degradation) in T47D cells, 3 days compound treatment
# Type: cell-based
# Condition Parameters: T47D, read-out: Mean Dmax (%)** category
# Dmax listing for each entry below

* CNC(=O)COc1cc2cc(Nc3nc(N4CCC(O[C@H]5C[C@H](N6CC[C@@H](c7ccc8c(c7F)CN(C7CCC(=O)NC7=O)C8=O)C(C)(C)C6)C5)CC4)ncc3Cl)ccc2n(C(C)C)c1=O (some centres unmarked) [Compound 430] | ≥ 70%

Requested read-out: Dmax. Entry: CNC(=O)COc1cc2cc(Nc3nc(N4CCC(O[C@H]5C[C@H](N6CC7(CCN(c8ccc9c(c8)CN(C8CCC(=O)NC8=O)C9=O)C7)C6)C5)CC4)ncc3Cl)ccc2n(C(C)C)c1=O (some centres unmarked) [Compound 351]
≥ 70%

Next: CNC(=O)COc1cc2cc(Nc3nc(N4CCC(O[C@H]5C[C@H](N6CC7(CCN(c8ccc9c(c8C)C(=O)N(C8CCC(=O)NC8=O)C9=O)CC7)C6)C5)CC4)ncc3Cl)ccc2n(C(C)C)c1=O (some centres unmarked) [Compound 418]
≥ 70%

Cool, now CNC(=O)COc1cc2cc(Nc3nc(N4CCC(OC5CCC6(CC5)CN(c5c(F)ccc7c5CN(C5CCC(=O)NC5=O)C7=O)C6)CC4)ncc3Cl)ccc2n(C(C)C)c1=O (centres unmarked) [Compound 298]
50 to 70%

Continue with CNC(=O)COc1cc2cc(Nc3nc(N4CCC(O[C@H]5C[C@H](N6CC7(CCN7c7cccc8c7C(=O)N(C7CCC(=O)NC7=O)C8)C6)C5)CC4)ncc3Cl)ccc2n(C(C)C)c1=O (some centres unmarked) [Compound 310]
50 to 70%

----------
Quick reference: Dmax of the listed items.
# System: BCL6 (Homo sapiens)
# Construct: endogenous in cells; host or cells: T47D breast cancer epithelial cells
# Method: Immunofluorescence protocol for high content imaging of BCL6 (degradation) in T47D cells, 3 days compound treatment
# Assay type: cell-based
# Condition Parameters: T47D, read-out: Mean Dmax (%)** category

Here are 2 molecules together with their reported answers.
- CNC(=O)COc1cc2cc(Nc3nc(N4CCC(CN5CCC6(CC5)CN(c5ccc7c(c5C(C)C)CN(C5CCC(=O)NC5=O)C7=O)C6)CC4)ncc3Cl)ccc2n(C(C)C)c1=O (centres unmarked): 50 to 70%
- CNC(=O)COc1cc2cc(Nc3nc(N4CCC(O[C@H]5C[C@H](N6CCC7(CCN(c8ccc9c(c8)CN(C8CCC(=O)NC8=O)C9=O)C7)C6)C5)CC4)ncc3Cl)ccc2n(C(C)C)c1=O (some centres unmarked): ≥ 70%

So what does the record say about Dmax for CNC(=O)COc1cc2cc(Nc3nc(N4CCC(O[C@H]5C[C@H](N6CCC(c7ccc8c(c7F)CN(C7CCC(=O)NC7=O)C8=O)CC6)C5)CC4)ncc3Cl)ccc2n(CC(C)C)c1=O (some centres unmarked) ?
≥ 70%

Subsequent entry: CNC(=O)COc1cc2cc(Nc3nc(N4CCC(O[C@H]5C[C@H](N6CC[C@H](c7ccc8c(c7F)CN(C7CCC(=O)NC7=O)C8=O)[C@@H](O)C6)C5)CC4)ncc3Cl)ccc2n(C(C)C)c1=O (some centres unmarked)
50 to 70%

Please do the same for CNC(=O)COc1cc2cc(Nc3nc(N4CCC(N5CCC6(CN(CC7CCN(c8ccc9c(c8)CN(C8CCC(=O)NC8=O)C9=O)CC7)C6)C5)CC4)ncc3Cl)ccc2n(C(C)C)c1=O (centres unmarked) as well.
50 to 70%
